Kindly supply the reported EC50 values for the records listed here.
- ASSAY_SYSTEM: UniProt:Q96RI1
- Sequence (Q96RI1 whole entry): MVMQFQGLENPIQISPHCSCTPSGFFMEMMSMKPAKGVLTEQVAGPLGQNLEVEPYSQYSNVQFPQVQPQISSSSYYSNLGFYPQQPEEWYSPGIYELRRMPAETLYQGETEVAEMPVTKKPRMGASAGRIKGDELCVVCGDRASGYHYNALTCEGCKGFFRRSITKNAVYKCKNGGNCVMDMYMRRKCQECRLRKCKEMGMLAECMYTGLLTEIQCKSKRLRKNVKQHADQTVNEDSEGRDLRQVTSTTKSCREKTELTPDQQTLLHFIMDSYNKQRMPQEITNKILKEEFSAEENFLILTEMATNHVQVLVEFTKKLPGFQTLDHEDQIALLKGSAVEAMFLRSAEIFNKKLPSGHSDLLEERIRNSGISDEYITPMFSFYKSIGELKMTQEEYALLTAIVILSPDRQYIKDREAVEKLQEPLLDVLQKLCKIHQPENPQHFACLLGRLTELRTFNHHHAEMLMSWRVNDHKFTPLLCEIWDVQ
- PROCEDURE_DETAILS: FXR reporter assay, EC50 and efficacy (Indigo Biosciences luciferase reporter cells)
- Format: cell-based
One number for each entry, in nM.

Use the examples below as a reference point.
query: Query (compound): CC[C@@H]1[C@@H]2[C@@H](F)[C@H](O)CC[C@]2(C)C2CC[C@@]3(C)C(CCC3[C@H](C)CCNC(=O)NS(=O)(=O)c3ccccc3C)C2[C@@H]1O (stereo partly shown) [Compound 5] ; field requested: EC50
result: 28

query: Lookup CC[C@@H]1[C@@H]2[C@@H](F)[C@H](O)CC[C@]2(C)C2CC[C@@]3(C)C(CCC3[C@H](C)CCNC(=O)NS(=O)(=O)c3cccc(F)c3)C2[C@@H]1O (stereo partly shown) [Compound 7]
result: 38

query: // next record CC[C@@H]1[C@@H]2[C@@H](F)[C@H](O)CC[C@]2(C)C2CC[C@@]3(C)C(CCC3[C@H](C)CCNC(=O)NS(=O)(=O)c3ccc(C(F)(F)F)cc3)C2[C@@H]1O (stereo partly shown) [Compound 9]
result: 50

query: Next compound up: CC[C@@H]1[C@@H]2[C@@H](F)[C@H](O)CC[C@]2(C)C2CC[C@@]3(C)C(CCC3[C@H](C)CCNC(=O)NS(=O)(=O)c3ccccc3)C2[C@@H]1O (stereo partly shown) [Compound 2]
result: 24

query: # repeat for CC[C@H]1[C@@H](O)[C@@H]2[C@H](CC[C@]3(C)[C@@H]([C@H](C)CCC(=O)NS(=O)(=O)c4ccccc4F)CC[C@@H]23)[C@@]2(C)CC[C@@H](O)[C@H](F)[C@@H]12 [Compound 17]
result: 34

query: For CC[C@@H]1[C@@H]2[C@@H](F)[C@H](O)CC[C@]2(C)C2CC[C@@]3(C)C(CCC3[C@H](C)CCNC(=O)NS(=O)(=O)c3ccccc3C(F)(F)F)C2[C@@H]1O (stereo partly shown) [Compound 11] then?
result: 123

query: Okay, and CC[C@@H]1[C@@H]2[C@@H](F)[C@H](O)CC[C@]2(C)C2CC[C@@]3(C)C(CCC3[C@H](C)CCNC(=O)NS(=O)(=O)c3ccc(F)cc3)C2[C@@H]1O (stereo partly shown) [Compound 6] ?
result: 32

query: Please answer likewise for CC[C@@H]1[C@@H]2[C@@H](F)[C@H](O)CC[C@]2(C)C2CC[C@@]3(C)C(CCC3[C@H](C)CCNC(=O)NS(=O)(=O)c3ccc(C)cc3)C2[C@@H]1O (stereo partly shown) [Compound 1]
result: 18

query: And CC[C@H]1[C@@H](O)[C@@H]2[C@H](CC[C@]3(C)[C@@H]([C@H](C)CCC(=O)NS(=O)(=O)C4CC4)CC[C@@H]23)[C@@]2(C)CC[C@@H](O)[C@H](F)[C@@H]12 [Comparative compound B, reference compound] ?
result: 158

query: Could you do the same for CC[C@@H]1[C@@H]2[C@@H](F)[C@H](O)CC[C@]2(C)C2CC[C@@]3(C)C(CCC3[C@H](C)CCNC(=O)NS(=O)(=O)c3ccc(C(C)(C)C)cc3)C2[C@@H]1O (stereo partly shown) [Compound 3] , please?
result: 19

Please look at the items below and tell me EC50 for each one, in order.
1. CC[C@H]1[C@@H](O)[C@@H]2[C@H](CC[C@]3(C)[C@@H]([C@H](C)CCC(=O)NS(C)(=O)=O)CC[C@@H]23)[C@@]2(C)CC[C@@H](O)[C@H](F)[C@@H]12 [Comparative compound C, reference compound]
2. CC[C@@H]1[C@@H]2[C@@H](F)[C@H](O)CC[C@]2(C)C2CC[C@@]3(C)C(CCC3[C@H](C)CCNC(=O)NS(=O)(=O)c3ccc(OC)cc3)C2[C@@H]1O (stereo partly shown) [Compound 13]

result:
192
48

Please report EC50 for every entry that follows.
1. CC[C@H]1[C@@H](O)C2C3CCC([C@H](C)CCNC(=O)NS(=O)(=O)c4ccccc4)[C@@]3(C)CCC2[C@@]2(C)CC[C@@H](O)C[C@@H]12 (stereo partly shown) [Comparative compound A, reference compound]
2. CC[C@H]1[C@@H](O)[C@@H]2[C@H](CC[C@]3(C)[C@@H]([C@H](C)CCC(=O)NS(=O)(=O)c4cccc(C(F)(F)F)c4)CC[C@@H]23)[C@@]2(C)CC[C@@H](O)[C@H](F)[C@@H]12 [Compound 19]
3. CC[C@H]1[C@@H](O)[C@@H]2[C@H](CC[C@]3(C)[C@@H]([C@H](C)CCC(=O)NS(=O)(=O)c4ccc(F)cc4)CC[C@@H]23)[C@@]2(C)CC[C@@H](O)[C@H](F)[C@@H]12 [Compound 15]
4. CC[C@@H]1[C@@H]2[C@@H](F)[C@H](O)CC[C@]2(C)C2CC[C@@]3(C)C(CCC3[C@H](C)CCNC(=O)NS(=O)(=O)c3ccc(OC(F)(F)F)cc3)C2[C@@H]1O (stereo partly shown) [Compound 12]

result:
1. 32
2. 50
3. 38
4. 27
